Assay system UniProt P48736; read-out recorded as pKd.
pKd is a log-scale quantity: -log10 of the concentration expressed in molar.

Here is how some molecules turned out for pKd.
> print(dat)
                                   molecule  recorded.result
1  CC(Nc1cccc(F)c1)c1cc(C(=O)NC[C@@H](C)O)cc2ncc(N3CCOCC3)nc12 (single isomer, unassigned) [Compound 338a]             5.14
2  C[C@@H](Nc1cc(F)cc(F)c1)c1cc(C(=O)NCCN(C)C)cc2ncc(N3CCOCC3)nc12 [Compound 184]             6.00
3  CC(Nc1cc(F)cc(F)c1)c1cc(CNCCS(C)(=O)=O)cc2ncc(N3CCOCC3)nc12 (stereo not shown) [Compound 173]             5.45
4  CC(Nc1cccc(F)c1)c1cc(C(=O)NC[C@@H](C)O)cc2ncc(N3CCOCC3)nc12 (single isomer, unassigned) [Compound 338b]             5.63
5  O=C(c1cc(C2CCCN2c2cc(F)cc(F)c2)c2nc(N3CCOCC3)cnc2c1)N1CCC[C@H]1CO (mixture of isomers) [Compound 64]             5.89
6  CC(C)NCCNC(=O)c1cc(C(C)Nc2cc(F)c(F)c(F)c2)c2nc(N3CCOCC3)cnc2c1 (single isomer, unassigned) [Compound 283a]             4.72
7  CC(Oc1ccc(F)c(F)c1)c1cc(C(=O)N2CC[C@H](N(C)C)C2)cc2ncc(N3CCOCC3)nc12 (single isomer, unassigned) [Compound 363a]             4.57

The record that follows has no pKd shown yet.
*Q* Provide pKd, tested on UniProt P48736, for CC(Sc1ccccc1)c1cc(C(=O)N(C)C)cc2ncc(N3CCOCC3)nc12 (stereo not shown) [Compound 135] .
*A* 4.76

====

The following compounds each carry a recorded pKd for PI3Kδ (Homo sapiens).
Lab note — pKd values are minus log10 of concentrations in M.

These recorded examples may help you get a feel for the data.
> print(dat)
                                   compound  result.type  recorded.result
1  CN(C)C(=O)c1cc(N2CCCC2c2cc(F)cc(F)c2)c2nc(N3CCOCC3)cnc2c1 (single isomer, unassigned) [Compound 395a]          pKd             5.90
2  CC(Oc1ccc(Cl)c(F)c1)c1cc(C(=O)N(C)CCN(C)C)cc2ncc(N3CCOCC3)nc12 (single isomer, unassigned) [Compound 313b]          pKd             5.26

*Q* Under PI3Kδ (Homo sapiens), report pKd for CC(C)NCCNC(=O)c1cc(C(C)Nc2ccc(F)c(F)c2)c2nc(N3CCOCC3)cnc2c1 (single isomer, unassigned) [Compound 364a]
*A* 6.69

*Q* Give pKd only, for CC(C)NCCNC(=O)c1cc(C(C)Nc2ccc(Cl)c(F)c2)c2nc(N3CCOCC3)cnc2c1 (single isomer, unassigned) [Compound 312b] , using PI3Kδ (Homo sapiens) data.
*A* 5.73

*Q* Report its pKd with PI3Kδ (Homo sapiens) as the test system: CN(Cc1cc(F)cc(F)c1)c1cc(C(=O)N2CCNC(C(F)(F)F)C2)cc2ncc(N3CCOCC3)nc12 (centres unmarked) [Compound 319b]
Sequence (O00329 whole entry): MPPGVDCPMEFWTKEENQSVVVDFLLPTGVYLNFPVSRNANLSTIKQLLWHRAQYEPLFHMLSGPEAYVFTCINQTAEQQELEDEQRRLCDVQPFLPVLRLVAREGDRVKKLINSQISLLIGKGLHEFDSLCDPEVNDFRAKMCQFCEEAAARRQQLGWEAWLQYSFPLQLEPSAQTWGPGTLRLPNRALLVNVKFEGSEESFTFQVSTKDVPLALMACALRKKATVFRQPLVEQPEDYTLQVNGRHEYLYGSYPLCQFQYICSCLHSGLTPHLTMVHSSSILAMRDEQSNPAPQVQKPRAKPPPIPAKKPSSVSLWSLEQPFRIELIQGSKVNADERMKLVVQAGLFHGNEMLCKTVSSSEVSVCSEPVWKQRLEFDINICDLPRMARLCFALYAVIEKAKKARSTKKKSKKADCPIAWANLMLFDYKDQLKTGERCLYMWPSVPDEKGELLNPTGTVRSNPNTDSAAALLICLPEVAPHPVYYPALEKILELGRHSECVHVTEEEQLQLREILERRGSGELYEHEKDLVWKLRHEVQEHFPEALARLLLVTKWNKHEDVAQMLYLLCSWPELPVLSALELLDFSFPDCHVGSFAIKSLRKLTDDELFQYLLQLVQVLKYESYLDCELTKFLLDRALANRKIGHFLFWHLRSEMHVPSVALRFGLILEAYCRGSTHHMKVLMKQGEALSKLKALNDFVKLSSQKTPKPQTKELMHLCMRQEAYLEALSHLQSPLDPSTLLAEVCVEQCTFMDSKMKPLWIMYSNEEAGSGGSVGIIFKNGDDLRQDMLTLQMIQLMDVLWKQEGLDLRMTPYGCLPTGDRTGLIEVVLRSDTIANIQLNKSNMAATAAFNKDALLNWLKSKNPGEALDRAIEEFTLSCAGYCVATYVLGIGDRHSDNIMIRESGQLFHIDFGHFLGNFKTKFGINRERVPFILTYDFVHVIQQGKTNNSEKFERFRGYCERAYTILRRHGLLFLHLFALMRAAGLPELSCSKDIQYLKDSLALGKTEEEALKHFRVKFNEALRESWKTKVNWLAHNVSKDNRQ
*A* 5.99

====

# target desc: kinase enzymes (Homo sapiens, UniProt P48736)
# Construct: purchased DiscoveRx Corporation, San Diego (contract service, KINOMEscan)
# Sequence (P48736 whole entry): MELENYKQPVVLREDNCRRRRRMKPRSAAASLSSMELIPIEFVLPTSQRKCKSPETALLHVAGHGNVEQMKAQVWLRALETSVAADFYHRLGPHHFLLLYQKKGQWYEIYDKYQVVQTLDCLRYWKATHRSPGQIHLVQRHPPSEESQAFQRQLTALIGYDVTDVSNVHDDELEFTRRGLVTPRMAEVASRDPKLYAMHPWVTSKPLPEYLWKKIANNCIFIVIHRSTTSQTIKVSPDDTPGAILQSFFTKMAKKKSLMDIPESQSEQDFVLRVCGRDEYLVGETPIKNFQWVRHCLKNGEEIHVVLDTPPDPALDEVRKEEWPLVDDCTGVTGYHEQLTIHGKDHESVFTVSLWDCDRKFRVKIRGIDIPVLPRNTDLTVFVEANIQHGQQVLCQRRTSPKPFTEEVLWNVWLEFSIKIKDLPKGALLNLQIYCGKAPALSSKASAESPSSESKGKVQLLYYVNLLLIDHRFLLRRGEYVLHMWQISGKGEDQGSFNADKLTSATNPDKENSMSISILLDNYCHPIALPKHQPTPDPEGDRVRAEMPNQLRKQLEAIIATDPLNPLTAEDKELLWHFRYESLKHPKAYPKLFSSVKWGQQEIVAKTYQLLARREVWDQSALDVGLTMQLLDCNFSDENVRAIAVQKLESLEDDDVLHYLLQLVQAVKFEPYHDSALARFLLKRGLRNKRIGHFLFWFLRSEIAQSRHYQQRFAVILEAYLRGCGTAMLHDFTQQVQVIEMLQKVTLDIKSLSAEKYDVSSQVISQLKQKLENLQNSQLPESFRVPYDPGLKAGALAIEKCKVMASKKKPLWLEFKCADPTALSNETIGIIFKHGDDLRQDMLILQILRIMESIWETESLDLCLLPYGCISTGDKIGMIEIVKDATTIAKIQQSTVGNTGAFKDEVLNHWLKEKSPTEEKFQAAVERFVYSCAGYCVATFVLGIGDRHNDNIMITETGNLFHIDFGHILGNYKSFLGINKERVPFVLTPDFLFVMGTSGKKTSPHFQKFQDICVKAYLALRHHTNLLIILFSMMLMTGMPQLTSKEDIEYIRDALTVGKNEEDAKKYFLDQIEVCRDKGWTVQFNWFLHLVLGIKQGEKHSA
# assay notes: Enzyme binding assay (KINOMEscan, DiscoveRx), further kinases of Table A
# condition notes: PIK3Cγ_h
pKd: −log10 of the molar value.
Entries and their pKd

Past entries and their recorded results:
> print(dat)
                                   molecule  recorded.result
1  CC(Nc1ccc(F)c(F)c1)c1cc(C(=O)N2CCN3CCC[C@H]3C2)cc2ncc(N3CCOCC3)nc12 (single isomer, unassigned) [Compound 287b]           < 4.52
2  Cc1cccc(NC(C)c2cc(C(=O)N3CCOCC3)cc3ncc(N4CCOCC4)nc23)c1 (stereo not shown) [Compound 120]           < 4.52
3  Cc1c(CNc2cc(C(=O)NCCO)cc3ncc(N4CCOCC4)nc23)cccc1C(F)(F)F [Compound 231]           < 4.52

*Q* Give pKd only, for CC(Oc1ccc(F)c(F)c1)c1cc(C(=O)N2CCN3CCC[C@H]3C2)cc2ncc(N3CCOCC3)nc12 (single isomer, unassigned) [Compound 369a] , using kinase enzymes (Homo sapiens, UniProt P48736) data.
*A* < 4.52

====

# target desc: PI3Kβ (Homo sapiens, UniProt P42338)
# Construct: purchased DiscoveRx Corporation, San Diego (contract service, KINOMEscan)
# Sequence (P42338 whole entry): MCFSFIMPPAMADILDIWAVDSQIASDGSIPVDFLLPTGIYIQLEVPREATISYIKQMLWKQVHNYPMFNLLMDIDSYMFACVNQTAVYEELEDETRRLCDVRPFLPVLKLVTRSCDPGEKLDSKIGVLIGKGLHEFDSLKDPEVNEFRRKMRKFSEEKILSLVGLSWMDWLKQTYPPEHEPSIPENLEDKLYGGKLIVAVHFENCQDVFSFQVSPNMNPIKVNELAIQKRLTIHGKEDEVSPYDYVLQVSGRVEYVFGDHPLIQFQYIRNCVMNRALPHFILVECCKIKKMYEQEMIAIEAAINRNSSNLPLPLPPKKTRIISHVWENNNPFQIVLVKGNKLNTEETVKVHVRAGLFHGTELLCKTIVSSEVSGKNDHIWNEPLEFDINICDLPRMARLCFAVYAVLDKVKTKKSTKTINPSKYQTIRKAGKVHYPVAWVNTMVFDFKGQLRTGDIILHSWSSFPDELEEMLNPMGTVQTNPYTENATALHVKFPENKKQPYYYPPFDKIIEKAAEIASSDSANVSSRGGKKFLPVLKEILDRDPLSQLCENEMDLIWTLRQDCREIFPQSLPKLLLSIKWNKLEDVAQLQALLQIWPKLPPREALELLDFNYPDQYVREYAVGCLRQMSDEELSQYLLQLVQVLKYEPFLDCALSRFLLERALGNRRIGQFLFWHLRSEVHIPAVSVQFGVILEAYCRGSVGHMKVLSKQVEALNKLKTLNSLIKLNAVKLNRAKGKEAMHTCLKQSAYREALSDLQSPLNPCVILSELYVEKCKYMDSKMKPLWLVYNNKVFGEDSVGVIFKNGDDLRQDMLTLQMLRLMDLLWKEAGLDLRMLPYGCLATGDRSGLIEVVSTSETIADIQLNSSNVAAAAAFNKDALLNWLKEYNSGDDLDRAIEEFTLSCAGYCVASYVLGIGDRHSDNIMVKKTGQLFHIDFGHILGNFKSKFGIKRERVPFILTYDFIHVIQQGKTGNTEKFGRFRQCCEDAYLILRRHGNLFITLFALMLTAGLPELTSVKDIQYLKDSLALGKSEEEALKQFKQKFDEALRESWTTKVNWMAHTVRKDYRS
# assay notes: Enzyme binding assay (KINOMEscan, DiscoveRx)
# condition notes: PIK3Cβ_h, read-out: Kd PIK3Cβ_h
result type: Kd (nM)
Report the figure in nM without appending any unit label.

Observe how each entry below is paired with its result.
> print(dat)
                                   compound  recorded.result
1  CNCCN(C)C(=O)c1cc(C(C)Oc2cc(F)c(F)c(F)c2)c2nc(N3CCOCC3)cnc2c1 (stereo not drawn) [Compound 379a]                2
2  CC(Nc1cc(F)cc(F)c1)c1cc(CN2CC3(C2)CS(=O)(=O)C3)cc2ncc(N3CCOCC3)nc12 (single isomer, unassigned) [Compound 161]              776
3  CC(Oc1cc(F)cc(F)c1)c1cc(C(=O)NCCO)cc2ncc(N3CCOCC3)nc12 (stereo not drawn) [Compound 198]               22

*Q* Indicate the recorded Kd value for this compound: CNCCNC(=O)c1cc([C@H](C)Oc2cccc(F)c2)c2nc(N3CCOCC3)cnc2c1 [Compound 123]
*A* 91

*Q* Could you please provide reported Kd for Cc1cccc(N(C)C(C)c2cc(C(=O)N(C)C)cc3ncc(N4CCOCC4)nc23)c1 (single isomer, unassigned) [Compound 127] ? Thanks!
*A* 32

====

# target desc: kinase enzymes (Homo sapiens, UniProt P48736)
pKd: −log10 of the molar value.
Rule: 1 (yes) for pKd not less than 5, 0 (no) for anything less.

Completed entries (count: 2):
> print(dat)
                                   compound  qualitative.label
1  CC(Nc1ccc(F)c(F)c1)c1cc(C(=O)N(C)C2CCNC2)cc2ncc(N3CCOCC3)nc12 (stereo not shown) [Compound 323b]            1 (yes)
2  CC(Nc1ccc(F)c(F)c1)c1cc(CO)cc2ncc(N3CCOCC3)nc12 (stereo not shown)            1 (yes)

*Q* Would you say CC(Nc1ccc(F)c(F)c1)c1cc(C(=O)N[C@H]2CCNC2)cc2ncc(N3CCOCC3)nc12 (single isomer, unassigned) [Compound 374b] shows pKd at minimum 5?
*A* 0 (no)

*Q* Textbook exercise: given the entry O=C(O)c1cc(C2CCCN2c2cc(F)cc(F)c2)c2nc(N3CCOCC3)cnc2c1 (single isomer, unassigned) , state whether its pKd is greater than or equal to 5.
*A* 1 (yes)

====

# target desc: kinase enzymes (Homo sapiens, UniProt P42336)
# Sequence (P42336 whole entry): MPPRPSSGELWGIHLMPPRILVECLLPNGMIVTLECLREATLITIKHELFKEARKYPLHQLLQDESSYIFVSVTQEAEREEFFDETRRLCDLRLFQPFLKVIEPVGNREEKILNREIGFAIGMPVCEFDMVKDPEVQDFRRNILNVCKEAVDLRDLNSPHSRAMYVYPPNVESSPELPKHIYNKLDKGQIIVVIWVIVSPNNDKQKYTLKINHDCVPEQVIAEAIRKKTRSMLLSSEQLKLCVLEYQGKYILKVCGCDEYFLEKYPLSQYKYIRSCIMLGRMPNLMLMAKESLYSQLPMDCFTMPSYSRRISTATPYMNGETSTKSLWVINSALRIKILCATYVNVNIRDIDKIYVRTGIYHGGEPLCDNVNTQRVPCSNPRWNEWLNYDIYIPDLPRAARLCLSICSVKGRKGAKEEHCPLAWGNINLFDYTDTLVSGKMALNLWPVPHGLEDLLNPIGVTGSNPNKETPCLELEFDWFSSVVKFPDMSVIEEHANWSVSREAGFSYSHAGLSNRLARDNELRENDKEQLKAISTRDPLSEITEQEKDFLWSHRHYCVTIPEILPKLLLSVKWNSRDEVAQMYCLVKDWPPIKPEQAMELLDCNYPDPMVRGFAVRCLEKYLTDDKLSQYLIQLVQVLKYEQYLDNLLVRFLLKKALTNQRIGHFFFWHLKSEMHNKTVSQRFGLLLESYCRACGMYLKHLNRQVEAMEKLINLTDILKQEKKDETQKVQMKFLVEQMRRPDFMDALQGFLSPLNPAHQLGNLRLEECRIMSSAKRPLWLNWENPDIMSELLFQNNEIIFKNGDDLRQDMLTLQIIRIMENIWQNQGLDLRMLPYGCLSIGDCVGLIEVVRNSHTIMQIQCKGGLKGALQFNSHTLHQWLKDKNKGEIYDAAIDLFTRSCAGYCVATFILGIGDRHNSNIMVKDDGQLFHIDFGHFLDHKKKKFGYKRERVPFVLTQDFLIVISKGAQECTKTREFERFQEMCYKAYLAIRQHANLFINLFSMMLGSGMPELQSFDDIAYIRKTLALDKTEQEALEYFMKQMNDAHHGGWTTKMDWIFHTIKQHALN
result type: Kd (µM)
Give just the number in µM; leave the unit off.

Reference set, count: 2
> print(dat)
                                   compound  result.type  recorded.result
1  NC1CCN(C(=O)c2cc(C3CCCN3c3cc(F)cc(F)c3)c3nc(N4CCOCC4)cnc3c2)CC1 (stereo not drawn)           Kd             0.03
2  CC(Nc1ccc(F)c(F)c1)c1cc(C(=O)NCC(C)(C)O)cc2ncc(N3CCOCC3)nc12 (single isomer, unassigned) [Compound 348a]           Kd             3.02

Please look at the following compound next.
*Q* GET Kd where system = kinase enzymes (Homo sapiens, UniProt P42336) and item = CC(Nc1cc(F)cc(F)c1)c1cc(CNCCS(C)(=O)=O)cc2ncc(N3CCOCC3)nc12 (stereo not drawn)
*A* 0.832

====

The compounds below have reported pKd for kinase enzymes (Homo sapiens, UniProt P42345).
pKd: −log10 of the molar value.

Known pKd results, listed for orientation:
> print(dat)
                                   compound                               target.desc  result.type  recorded.result
1  CC(Nc1ccc(F)c(F)c1)c1cc(C(=O)NC[C@@H](C)O)cc2ncc(N3CCOCC3)nc12 (single isomer, unassigned) [Compound 346b]  kinase enzymes (Homo sapiens, UniProt P42345)          pKd           < 4.52
2  CC(Nc1cc(F)c(F)c(F)c1)c1cc(C(=O)NC[C@@H](C)O)cc2ncc(N3CCOCC3)nc12 (single isomer, unassigned) [Compound 284b]  kinase enzymes (Homo sapiens, UniProt P42345)          pKd           < 4.52
3  CC(Nc1ccc(F)c(F)c1)c1cc(C(=O)N2CCN3CCC[C@H]3C2)cc2ncc(N3CCOCC3)nc12 (stereo partly drawn) [Compound 287]  kinase enzymes (Homo sapiens, UniProt P42345)          pKd           < 4.52
4  CC(c1cc(C(=O)N(C)C)cc2ncc(N3CCOCC3)nc12)N(C)c1cccc(Cl)c1 (single isomer, unassigned) [Compound 140]  kinase enzymes (Homo sapiens, UniProt P42345)          pKd           < 4.52
5  COc1cccc(NC(C)c2cc(C(=O)N3CCOCC3)cc3ncc(N4CCOCC4)nc23)c1 (stereo not drawn) [Compound 121]  kinase enzymes (Homo sapiens, UniProt P42345)          pKd           < 4.52

*Q* Respond only with pKd recorded for CC(Nc1ccc(F)c(F)c1)c1cc(C(=O)NCCCO)cc2ncc(N3CCOCC3)nc12 (single isomer, unassigned) [Compound 280b]
*A* < 4.52

*Q* Assign pKd to the following record: CC(Nc1ccc(F)c(F)c1)c1cc(C(=O)NCCN(C)C)cc2ncc(N3CCOCC3)nc12 (stereo not drawn) [Compound 299b]
*A* < 4.52

*Q* Return the recorded pKd value; entry: CN(C)C(=O)c1cc(N2CCCC2c2cc(F)cc(F)c2)c2nc(N3CCOCC3)cnc2c1 (single isomer, unassigned) [Compound 395b]
*A* 4.73

*Q* Answer with the recorded pKd of CC(Oc1cc(F)cc(F)c1)c1cc(C(=O)NCCO)cc2ncc(N3CCOCC3)nc12 (single isomer, unassigned) [Compound 199] only.
*A* 4.54

*Q* For the compound CNCCN(C)C(=O)c1cc(C(C)Nc2cc(F)cc(F)c2)c2nc(N3CCOCC3)cnc2c1 (single isomer, unassigned) [Compound 152] , give its measured pKd value.
*A* < 4.52

*Q* Assign pKd to the following record: CC(Nc1ccc(F)c(F)c1)c1cc(C(=O)NCCN(C)C)cc2ncc(N3CCOCC3)nc12 (single isomer, unassigned) [Compound 281b]
*A* < 4.52
